# system.tested: PI3KC2α Δ1-298 (Homo sapiens (Human), UniProt O00443)
# Sequence (O00443 299-1686): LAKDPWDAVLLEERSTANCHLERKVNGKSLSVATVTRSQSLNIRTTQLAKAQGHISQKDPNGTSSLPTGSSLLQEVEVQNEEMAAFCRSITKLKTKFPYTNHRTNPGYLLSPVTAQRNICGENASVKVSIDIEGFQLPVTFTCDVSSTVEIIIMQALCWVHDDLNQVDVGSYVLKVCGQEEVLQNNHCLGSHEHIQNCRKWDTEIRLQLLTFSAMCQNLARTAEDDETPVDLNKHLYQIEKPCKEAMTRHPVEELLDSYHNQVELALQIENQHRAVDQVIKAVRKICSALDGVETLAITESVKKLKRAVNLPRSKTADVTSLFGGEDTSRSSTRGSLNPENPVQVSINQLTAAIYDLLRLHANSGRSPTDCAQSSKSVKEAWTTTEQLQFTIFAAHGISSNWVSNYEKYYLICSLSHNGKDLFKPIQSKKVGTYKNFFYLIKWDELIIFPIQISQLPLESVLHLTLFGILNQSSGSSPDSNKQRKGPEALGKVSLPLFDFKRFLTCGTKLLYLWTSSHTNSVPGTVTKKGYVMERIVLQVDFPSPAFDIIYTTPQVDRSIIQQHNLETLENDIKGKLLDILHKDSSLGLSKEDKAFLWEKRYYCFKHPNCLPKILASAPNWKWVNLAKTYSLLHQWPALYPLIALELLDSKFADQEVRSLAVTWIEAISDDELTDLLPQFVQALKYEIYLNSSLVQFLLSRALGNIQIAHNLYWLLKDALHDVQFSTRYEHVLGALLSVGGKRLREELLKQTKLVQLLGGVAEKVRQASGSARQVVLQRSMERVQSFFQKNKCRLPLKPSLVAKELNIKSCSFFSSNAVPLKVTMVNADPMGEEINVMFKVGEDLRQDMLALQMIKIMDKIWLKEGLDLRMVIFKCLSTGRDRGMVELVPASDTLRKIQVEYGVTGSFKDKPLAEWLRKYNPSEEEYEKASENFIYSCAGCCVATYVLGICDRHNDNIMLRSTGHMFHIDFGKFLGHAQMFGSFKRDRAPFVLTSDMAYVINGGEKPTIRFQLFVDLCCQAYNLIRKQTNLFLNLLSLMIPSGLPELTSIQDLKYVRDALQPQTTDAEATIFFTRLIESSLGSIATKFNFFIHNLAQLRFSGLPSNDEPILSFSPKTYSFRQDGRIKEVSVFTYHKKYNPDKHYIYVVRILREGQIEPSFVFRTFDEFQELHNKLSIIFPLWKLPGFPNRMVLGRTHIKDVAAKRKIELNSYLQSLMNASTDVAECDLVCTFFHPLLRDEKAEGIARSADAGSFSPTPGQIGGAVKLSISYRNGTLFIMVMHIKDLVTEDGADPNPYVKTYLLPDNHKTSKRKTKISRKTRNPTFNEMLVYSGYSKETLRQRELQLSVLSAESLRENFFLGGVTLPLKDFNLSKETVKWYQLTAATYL
# test.name: ADP-Glo kinase assay with purified PI3KC2α Δ1-298
# Type: biochemical
# settings: read-out: IC50 (PI3KC2α; ADP-Glo™ assay)
metric.name: IC50 (nM)

> print(dat)
                           smiles.structure                             system.tested  metric.name  experimental.value
1  O=C(CSc1nc2nccnc2c(=O)n1CCc1ccccc1)Nc1ncc(Cl)s1  PI3KC2α Δ1-298 (Homo sapiens (Human), UniProt O00443)         IC50               35000
2  N#Cc1ccc(-n2c(SCc3nc4ccccc4[nH]3)nc3nccnc3c2=O)cc1  PI3KC2α Δ1-298 (Homo sapiens (Human), UniProt O00443)         IC50                1100
3  O=C(CSc1nc2nccnc2c(=O)n1CCc1cccc(F)c1)Nc1ncco1  PI3KC2α Δ1-298 (Homo sapiens (Human), UniProt O00443)         IC50                2100
4  O=C(CSc1nc2nccnc2c(=O)n1CCc1ccccc1)Nc1nc2c(F)cc(F)cc2s1  PI3KC2α Δ1-298 (Homo sapiens (Human), UniProt O00443)         IC50                3400

1 = CC(C)(C)OC(=O)N1CCC(n2c(SCC(=O)Nc3nccs3)nc3nccnc3c2=O)CC1
2 = O=C(CSc1nc2nccnc2c(=O)n1CCc1ccccc1)Nc1nc(-c2cccc(F)c2)cs1
3 = N#Cc1ccc(NC(=O)CSc2nc3nccnc3c(=O)n2CCc2ccccc2)nc1
4 = O=C(CSc1nc2nccnc2c(=O)n1CCc1ccc(O)cc1)Nc1nccs1
Prompt: Put the molecules in ascending order of IC50. Use the labels to give the requested order.
Completion: 4, 2, 1, 3
